# Tested on: hepatocellular carcinoma (HepG2)
# testMethodNotes: MTT cytotoxicity assay, HepG2
# Assay type: cell-based
# conditionsUsed: Homo sapiens, 24 h treatment, read-out: IC50 against HepG2
measuredParameter: pIC50
pIC50 is a log-scale quantity: -log10 of the concentration expressed in molar.

Here O=C1C(=Nn2cc(-c3ccccc3)n(-c3ccccc3)c2=S)c2cccc3cccc1c23 was tested on hepatocellular carcinoma (HepG2), and its pIC50 came to 5.13

Here COc1cccc(-n2c(-c3ccc(Cl)cc3)cn(N=C3C(=O)c4cccc5cccc3c45)c2=S)c1 was tested on hepatocellular carcinoma (HepG2), and its pIC50 came to 5.10

Here O=C1C(=Nn2cc(-c3ccc(Cl)cc3)n(-c3ccccc3)c2=S)c2cccc3cccc1c23 was tested on hepatocellular carcinoma (HepG2), and its pIC50 came to 5.31
